Hey, just so you know, these numbers are from PubChem BioAssay AID588855.

- Assay text: qHTS for Inhibitors of TGF-b; further: nearly all actives have a fitted effect of over 65% in size; further: potency means the concentration at half of the fitted maximal effect
- Study conditions: HepG2 CAGA-GFP TGF-b/SMAD3 reporter, GFP fluorescence, 18 h, TGF-beta stimulated, 500 pg/mL final; series mostly up to 46.1 µM
Screen size: about 410,000 compounds; about 5,000 (1.2%) were called active. Inconclusive results (about 13%) are left out. What follows is part of a selection rich in actives, with near analogues and random picks from the rest.
Observed property: Potency

Molecule | Observed property | Result value
Oc1cccc2cc(-c3ccncc3)cnc12 | Potency | 3.55 µM (active)
Cc1ccccc1-c1n[nH]c(=S)n1/N=C/c1ccc(-c2ccccc2Br)o1 | Potency | inactive
CC(Sc1oc(-c2ccco2)nc1S(=O)(=O)c1ccc(Br)cc1)c1ccccc1 (stereo unspecified) | Potency | inactive
O=[N+]([O-])c1cc(S(=O)(=O)N2CCCC2)ccc1NN=C1CCCC1 | Potency | inactive
COc1ccccc1N1CCN(/N=C\C(Br)=C\c2ccccc2)CC1 | Potency | inactive
N=C1C(c2nc3ccccc3s2)=C(O)CN1NC(=O)c1ccc([N+](=O)[O-])cc1 | Potency | 7.08 µM (active)
